# target_or_test_system: T1, full-length human DR6 on transfected cells (human, UniProt O75509 42-655)
# T1 construct: also called Death Receptor-6; TNFRSF21
# T1 sequence: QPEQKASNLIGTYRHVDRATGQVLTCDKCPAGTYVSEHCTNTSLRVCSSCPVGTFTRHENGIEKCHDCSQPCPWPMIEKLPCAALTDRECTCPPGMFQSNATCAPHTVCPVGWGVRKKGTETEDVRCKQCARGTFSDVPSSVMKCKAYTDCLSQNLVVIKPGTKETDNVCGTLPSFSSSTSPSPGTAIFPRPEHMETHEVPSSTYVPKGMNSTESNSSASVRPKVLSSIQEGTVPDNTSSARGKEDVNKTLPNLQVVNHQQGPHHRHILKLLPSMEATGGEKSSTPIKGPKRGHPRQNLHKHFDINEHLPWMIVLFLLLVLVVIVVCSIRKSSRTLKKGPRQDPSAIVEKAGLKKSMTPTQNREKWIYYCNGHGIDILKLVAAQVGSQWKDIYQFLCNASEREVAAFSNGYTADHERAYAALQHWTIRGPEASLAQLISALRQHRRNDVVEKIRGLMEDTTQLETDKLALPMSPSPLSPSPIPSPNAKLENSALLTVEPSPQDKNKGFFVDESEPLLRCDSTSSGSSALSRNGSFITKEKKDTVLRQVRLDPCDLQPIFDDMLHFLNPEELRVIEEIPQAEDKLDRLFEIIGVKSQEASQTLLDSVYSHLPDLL
# assay_text: FACS on 293E cells transfected with full-length human DR6
endpoint: binding result

1. M72-F03 (Fab, V domains shown, Human Fab from a phage display library) VH: EVQLLESGGGLVQPGGSLRLSCAASGFTFSQYMMSWVRQAPGKGLEWVSVIYPSGGSTHYADSVKGRFTISRDNSKNTLYLQMNSLRAEDTAVYYCARGHYGMDVWGQGTTVTVSS VL: DIQMTQSPDSLAVSLGERATINCKSSQSVLYSSNNKNYLAWYQHKAGQPPKLLIHWASSRASGVPDRFSGSGSGTDFTLTISSLQAEDVAVYYCQQFYSLPLTFGGGTKVEIR ... binds
2. M63-E10 (Fab, V domains shown, Human Fab from a phage display library) VH: EVQLLESGGGLVQPGGSLRLSCAASGFTFSQYKMSWVRQAPGKGLEWVSSISSSGGTNYADSVKGRFTISRDNSKNTLYLQMNSLRAEDTAMYYCARRNYGDRPYWYFDLWGRGTLVTVSS VL: DIQMTQSPSTLSASVGDRVTITCRASQTISRWLAWYQHKPGKAPKLLIYKTSNLESGVPSRFSGSGSGTEFTLTISSLQPDDFATYYCQQYKSYSITFGPGTKVDIK ... binds
3. M73-C04 (Fab, V domains shown, Human Fab from a phage display library) VH: EVQLLESGGGLVQPGGSLRLSCAASGFTFSPYAMVWVRQAPGKGLEWVSSISPSGGGTGYADSVKGRFTISRDNSKNTLYLQMNSLRAEDTAVYYCAREGWNYYYGMDVWGQGTTVTVSS VL: DIQMTQSPATLSLSPGERATLSCRASQSVSSYLAWYQQKPGQAPRLLIYDASNRATGIPARFSGSGSGTDFTLAISSLQPEDSATYYCLQDFIYPYTFGQGTKLEIR ... binds
